- experimental.target: κ opioid receptor (Homo sapiens, UniProt P41145)
- Construct: expressed in transfected cells; host or cells: CHO cells (membranes)
- assay.overview: Competition binding assay on membranes of CHO cells expressing κ opioid receptor, [3H]-labeled ligand
- condition: 0.5 h; Table 3-1; 1 μM concentration of compounds; read-out: κOR Binding rate (%)
Structures can show the parent of a compound that is named as a salt.
Kindly return TRUE if reported inhibition at 1 µM is no lower than 4%; return FALSE if it is lower.

Example results:
| molecule | cat |
| --- | --- |
| COC(=O)c1sccc1NC(=O)N1CCC(O)(c2cccc(OC)c2)C(CN(C)C)C1 (stereo not shown) [FWBF17, hydrochloride] | FALSE |
| COc1cccc(C2(O)CCN(C(=O)Nc3cc(C(F)(F)F)cc(C(F)(F)F)c3)CC2CN(C)C)c1.Cl (stereo not shown) [FWBF10, hydrochloride] | TRUE |

Prompt: Is inhibition at 1 µM for COc1cccc(C2(O)CCN(C(=O)Nc3cccc(F)c3)CC2CN(C)C)c1 (stereo not shown) [FWBF7, hydrochloride] at or above 4%?
Completion: FALSE

Prompt: Is inhibition at 1 µM for COc1cccc(C2(O)CCN(C(=O)NC34CC5CC(CC(C5)C3)C4)CC2CN(C)C)c1 (stereo not shown) [FWBF14, hydrochloride] at or above 4%?
Completion: TRUE

Prompt: Is inhibition at 1 µM for COc1cccc(C2(O)CCN(C(=O)Nc3ccc(Cl)c(Cl)c3)CC2CN(C)C)c1.Cl (stereo not shown) [FWBF5, hydrochloride] at or above 4%?
Completion: TRUE

====

- experimental.target: δ opioid receptor (Homo sapiens)
- Construct: expressed in transfected cells; host or cells: CHO cells (membranes)
- assay.overview: Competition binding assay on membranes of CHO cells expressing δ opioid receptor, [3H]-labeled ligand
- condition: 0.5 h; Table 2-1; 1 μM concentration of compound; read-out: δOR Binding rate (%)
Structures can show the parent of a compound that is named as a salt.
reported.metric: inhibition at 1 µM (%)
// units = %; emit number, no label

Solved cases below.
| compound | inhibition at 1 µM [%] |
| --- | --- |
| COc1cccc(C2(O)CCN(S(C)(=O)=O)CC2CN(C)C)c1.Cl (stereo not shown) [FWBH23, hydrochloride] | 16 |
| COc1cccc(C2(O)CCN(S(=O)(=O)C[C@]34CC[C@H](CC3=O)C4(C)C)CC2CN(C)C)c1 (stereo partly shown) [FWBH25, hydrochloride] | 14.3 |
| COc1cccc(C2(O)CCN(S(=O)(=O)Cc3cccc(Br)c3)CC2CN(C)C)c1.Cl (stereo not shown) [FWBH13, hydrochloride] | 15.1 |

Now, please, on to the next compound.
Prompt: What value of inhibition at 1 µM has been recorded for this entry: COc1cccc(C2(O)CCN(S(=O)(=O)c3ccccc3)CC2CN(C)C)c1.Cl (stereo not shown) [FWBH16, hydrochloride]
Completion: 40.5

====

- experimental.target: κ opioid receptor (Homo sapiens, UniProt P41145)
- Construct: expressed in transfected cells; host or cells: CHO cells (membranes)
- assay.overview: Competition binding assay on membranes of CHO cells expressing κ opioid receptor, [3H]-labeled ligand
- condition: Table 3-1; read-out: κOR Ki
reported.metric: Ki (nM)
// units = nM; emit number, no label

| compound | reported.metric | observed |
| --- | --- | --- |
| COc1cccc(C2(O)CCN(C(=O)Nc3cccc(Cl)c3)CC2CN(C)C)c1.Cl (centres unmarked) [FWBF2, hydrochloride] | Ki | 719 |

Now, please, on to the next compound.
Prompt: What value of Ki has been recorded for this entry: COc1cccc(C2(O)CCN(C(=O)Nc3ccccc3)CC2CN(C)C)c1.Cl (centres unmarked) [FWBF1, hydrochloride]
Completion: 49.1

Ref: patent US12624004B2
